experiment: Water insoluble assay (Delta): optical response (OD700) of the hydrophobic polymer Δ reagent, irritation score; details: TP/FN/TN based on comparison with the in vivo test results
Observed property: water insoluble assay (Delta), parenthetical call versus in vivo

Here's what some known entries look like.
// query Bench note: what water insoluble assay (Delta), parenthetical call versus in vivo did "OCc1ccccc1" show?
// result (TP)

// query Which water insoluble assay (Delta), parenthetical call versus in vivo value is on record for "ClCCCCBr" ?
// result TN)

// query Using the record for "CN(C)CCCCCCN(C)C" , report its water insoluble assay (Delta), parenthetical call versus in vivo.
// result (TP)

// query Which water insoluble assay (Delta), parenthetical call versus in vivo reading was recorded for the molecule "CCCCCCCCCCCC" ?
// result (TN)

// query Query: water insoluble assay (Delta), parenthetical call versus in vivo; subject: "CC(C)(C)CC(C)(C)c1ccc(O)cc1"
// result (FN)

Next:
// query What does the record list as water insoluble assay (Delta), parenthetical call versus in vivo for "CC(C)O" ?
// result (FN)

// query Which water insoluble assay (Delta), parenthetical call versus in vivo is listed for "NCCO" ?
// result (FN)

// query Query (molecule): O=C=Nc1ccc(Cl)c(Cl)c1 [3,4-Dichlorophenyl isocyanate] ; field requested: water insoluble assay (Delta), parenthetical call versus in vivo
// result (FN)

// query # lookup: water insoluble assay (Delta), parenthetical call versus in vivo of "BrCCCCCCBr"
// result (TN)

// query I have this molecule here, "CCCCCCO" , and I need its recorded water insoluble assay (Delta), parenthetical call versus in vivo.
// result (FN)

// query Recorded water insoluble assay (Delta), parenthetical call versus in vivo of O=C(Cl)C(Cl)(Cl)Cl [Trichloroacetyl chloride] , please.
// result (TP)

// query # get_value(readout='water insoluble assay (Delta), parenthetical call versus in vivo', item= CCCCC(CC)COC(=O)c1ccc(N(C)C)cc1 (centres unmarked) [2-Ethylhexyl 4-(dimethylamino)benzoate] )
// result (TN)

// query Look up water insoluble assay (Delta), parenthetical call versus in vivo: "CCC(C)(C)C(=O)O"
// result (FN)

// query // water insoluble assay (Delta), parenthetical call versus in vivo lookup, key: "CCCCCCCCN"
// result (TP)
